tested on: HaCat; assay: Cytotoxic Profiling of Annotated Libraries Using Quantitative High-Throughput Screening (AID 1296008); details: Five cell lines viability, CellTiter-Glo ATP luminescence, 48-72 h; note: nearly all actives have a fitted effect of over 60% in size
Records with an inconclusive call do not appear. Calls of active or inactive are those of the source. Calls come from the whole dose curve; as a rule, active = well fitted inhibition curve with a large enough effect; inconclusive = small, poorly fitted or top-dose-only effect; inactive = flat fitted curve, though single readings scatter.
Classes to choose from: active, inactive

Take a look at these entries with their results.
molecule	labelValue
COC(=O)[C@]12CCCC(C)(C)C1CCc1cc(C(C)C)c(O)c(O)c12 (some centres not stated)	inactive
CCC1CN2CCc3cc(OC)c(OC)cc3C2CC1CC1=NCCc2cc(O)c(OC)cc21 (configuration not stated)	inactive
CN1C(=O)C(Cc2ccc3ccccc3c2)N=C(c2ccc(O)cc2)c2cc(Cl)ccc21 (configuration not stated)	inactive
Oc1ccc2c3c1O[C@H]1c4[nH]c5c(N=C=S)cccc5c4C[C@@]4(O)[C@@H](C2)N(CC2CC2)CC[C@]314	inactive
C/C=C(\C)C(O)C(C)/C=C(C)/C=C/C/C(C)=C/Cc1nc(OC)c(OC)c(O[C@@H]2O[C@@H](C)[C@H](O)[C@@H](O)[C@H]2O)c1C (some centres not stated)	inactive

**Query** Hey, what did the test say about `CC(=O)O[C@H]1CC[C@@]2(CI)C(=CC[C@@H]3[C@@H]2CC[C@]2(C)C(=O)CC[C@@H]32)C1` ?
**Result** inactive

**Query** Hey, what did the test say about `C[C@@H]1CCC/C=C/[C@H]2C[C@@H](O)C[C@@H]2[C@@H](O)/C=C/C(=O)O1` ?
**Result** active

**Query** Hey, what did the test say about `C[C@]12CC[C@@H](O)C[C@@H]1CC[C@@H]1[C@@H]2CC[C@]2(C)C(=O)[C@@H](Br)C[C@@H]12` ?
**Result** inactive

**Query** Hey, what did the test say about CO[C@H]1[C@H](O)[C@H](O[C@H]2CC[C@]3(C=O)C4CC[C@]5(C)[C@H](C6=CC(=O)OC6)CC[C@]5(O)C4CC[C@@H]3C2)O[C@@H](C)[C@@H]1O (some centres not stated) ?
**Result** active

**Query** Hey, what did the test say about COc1ccc(CC2C(=O)NC(C)C(=O)N(C)C3Cc4ccc(cc4)Oc4cc(ccc4OC4OC(CO)C(O)C(O)C4O)CC(C(=O)NC(C)C(=O)NC(CCC(=O)O)C(=O)N2C)N(C)C3=O)cc1 (configuration not stated) ?
**Result** inactive
